Consider the following compounds and their measured inhibition at 3.3 µM readings.
- target: human CaSR (Homo sapiens, UniProt P41180)
- Construct: expressed in transfected cells; host or cells: CHO cells
- Sequence (P41180 20-1078): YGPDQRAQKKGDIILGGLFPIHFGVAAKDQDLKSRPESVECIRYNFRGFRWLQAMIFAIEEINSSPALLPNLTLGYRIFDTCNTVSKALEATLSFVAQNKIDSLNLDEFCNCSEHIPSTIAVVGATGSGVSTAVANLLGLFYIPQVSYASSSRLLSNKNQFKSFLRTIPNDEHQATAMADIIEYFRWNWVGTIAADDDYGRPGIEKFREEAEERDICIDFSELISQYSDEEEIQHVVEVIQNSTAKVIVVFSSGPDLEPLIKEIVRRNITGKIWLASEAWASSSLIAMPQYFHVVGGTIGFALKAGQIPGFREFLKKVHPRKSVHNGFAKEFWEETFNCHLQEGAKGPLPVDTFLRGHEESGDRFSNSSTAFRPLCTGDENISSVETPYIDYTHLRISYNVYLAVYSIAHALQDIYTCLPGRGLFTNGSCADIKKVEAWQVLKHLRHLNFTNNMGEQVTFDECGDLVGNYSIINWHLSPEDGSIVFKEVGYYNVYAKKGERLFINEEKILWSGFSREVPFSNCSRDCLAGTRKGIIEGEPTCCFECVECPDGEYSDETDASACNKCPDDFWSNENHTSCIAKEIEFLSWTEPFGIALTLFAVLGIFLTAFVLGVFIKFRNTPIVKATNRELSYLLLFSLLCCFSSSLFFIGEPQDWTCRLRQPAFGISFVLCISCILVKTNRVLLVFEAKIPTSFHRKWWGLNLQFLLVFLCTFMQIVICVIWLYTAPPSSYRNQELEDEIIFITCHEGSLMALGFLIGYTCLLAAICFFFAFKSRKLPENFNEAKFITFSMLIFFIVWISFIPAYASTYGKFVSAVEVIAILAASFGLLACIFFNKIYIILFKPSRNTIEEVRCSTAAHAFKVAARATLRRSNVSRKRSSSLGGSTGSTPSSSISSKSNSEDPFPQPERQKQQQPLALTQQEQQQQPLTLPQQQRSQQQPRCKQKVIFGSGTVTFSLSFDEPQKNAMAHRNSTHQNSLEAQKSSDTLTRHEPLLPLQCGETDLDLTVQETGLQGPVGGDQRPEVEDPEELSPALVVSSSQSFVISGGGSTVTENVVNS
- method: Human CaSR antagonist activity (NFAT-Luciferase reporter in CHO cells)
- Format: cell-based
- condition notes: CHO, CaCl2 final 1.3 mM, 100% = reference antagonist at 10 μM, read-out: Inhibition rate (%) at 3.3 μM
assay endpoint: inhibition at 3.3 µM (%)

compound="CCc1ccc(C(C)(NC(=O)c2cnn3c2N[C@@H](c2ccccc2)CC3(C)C)C(=O)N[C@@H](CC(C)C)C(N)=O)cc1 (stereo partly shown)" units_of_measure=% test_value=98
compound="CCc1ccc(C(CC)(NC(=O)c2cnn3c2N[C@@H](c2ccccc2)CC3(C)C)C(=O)N[C@@H](Cc2ccccc2)C(N)=O)cc1 (stereo partly shown)" units_of_measure=% test_value=101
compound="CCc1ccc(C(CC)(NC(=O)c2cnn3c2N[C@@H](c2ccccc2)CC3(C)C)C(=O)N(C)C)cc1 (stereo partly shown)" units_of_measure=% test_value=102
compound="CCc1ccc(C(CC)(NC(=O)c2cnn3c2N[C@@H](c2ccccc2)CC3(C)C)C(=O)N[C@H](C(N)=O)[C@@H](C)CC)cc1 (stereo partly shown)" units_of_measure=% test_value=100
compound="CCc1ccc(C(CC)(NC(=O)c2cnn3c2N[C@@H](c2ccccc2)CC3(C)C)C(N)=O)cc1 (stereo partly shown)" units_of_measure=% test_value=106
compound="CCc1ccc(C(CC)(NC(=O)c2cnn3c2N[C@@H](c2ccccc2)CC3(C)C)C(=O)N[C@@H](CCCCN)C(N)=O)cc1 (stereo partly shown)" units_of_measure=% test_value=101
compound="CCc1ccc(C(CC)(NC(=O)c2cnn3c2N[C@@H](c2ccccc2)CC3(C)C)C(=O)N[C@@H](C)C(N)=O)cc1 (single isomer, unassigned) [Example 4]" units_of_measure=% test_value=102
compound="CCc1ccc(C(CC)(NC(=O)c2cnn3c2N[C@@H](c2ccccc2)CC3(C)C)C(=O)N[C@@H](CC(C)C)C(N)=O)cc1 (stereo partly shown)" units_of_measure=% test_value=98
compound=CCc1ccc([C@](CC)(NC(=O)c2c(C)nn3c2N[C@@H](c2ccccc2)CC3(C)C)C(=O)N[C@@H](C)C(N)=O)cc1 units_of_measure=% test_value=94
compound="CCc1ccc(C(CC)(NC(=O)c2cnn3c2N[C@@H](c2ccccc2)CC3(C)C)C(=O)N[C@H](C)C(N)=O)cc1 (stereo partly shown)" units_of_measure=% test_value=106
compound="CCc1ccc(C(CC)(NC(=O)c2cnn3c2N[C@@H](c2ccccc2)CC3(C)C)C(=O)N[C@@H](CC)C(N)=O)cc1 (single isomer, unassigned)" units_of_measure=% test_value=105
compound="CCc1ccc(C(CC)(NC(=O)c2cnn3c2N[C@@H](c2ccccc2)CC3(C)C)C(=O)N[C@@H](CC(N)=O)C(N)=O)cc1 (stereo partly shown)" units_of_measure=% test_value=102
compound="CCc1ccc(C(CC)(NC(=O)c2cnn3c2N[C@@H](c2ccccc2)CC3(C)C)C(=O)NCC(N)=O)cc1 (stereo partly shown)" units_of_measure=% test_value=104
compound="CCc1ccc(C(CC)(NC(=O)c2cnn3c2N[C@@H](c2ccccc2)CC3(C)C)C(=O)N[C@H](C(N)=O)C(C)C)cc1 (single isomer, unassigned)" units_of_measure=% test_value=99
compound="CCc1ccc(C(CC)(NC(=O)c2cnn3c2N[C@@H](c2ccccc2)CC3(C)C)C(=O)N[C@@H](CO)C(N)=O)cc1 (stereo partly shown)" units_of_measure=% test_value=102
compound=CCc1ccc([C@@](CC)(NC(=O)c2c(C)nn3c2N[C@@H](c2ccccc2)CC3(C)C)C(=O)N[C@@H](C)C(N)=O)cc1 units_of_measure=% test_value=103
compound=CCc1ccc([C@@](CC)(NC(=O)c2cnn3c2N[C@@H](c2ccccc2)CC3(C)C)C(=O)N[C@H](C(N)=O)[C@@H](C)O)cc1 units_of_measure=% test_value=103
compound="CCc1ccc(C(CC)(NC(=O)c2cnn3c2N[C@@H](c2ccccc2)CC3(C)C)C(=O)N[C@@H](C)C(N)=O)cc1 (stereo partly shown) [Example 2]" units_of_measure=% test_value=102
compound="CCc1ccc(C(CC)(NC(=O)c2cnn3c2N[C@@H](c2ccccc2)CC3(C)C)C(=O)NC)cc1 (stereo partly shown)" units_of_measure=% test_value=103

====

- Test system: CYP3A
- method: CYP induction (CYP3A activity in cryopreserved hepatocytes, P450-Glo CYP3A4 assay)
- Type: in vitro ADME
- condition notes: % of positive control; inducibility by 10 μmol/L rifampicin defined as 100%; hepatocytes treated 3 days
assay endpoint: Inducibility

molecule="CCc1ccc(C(CC)(NC(=O)c2cnn3c2N[C@@H](c2ccccc2)CC3(C)C)C(=O)N[C@H](C(N)=O)C(C)C)cc1 (single isomer, unassigned) [Example 12]" test_value=17.3%
molecule="CCc1ccc(C(CC)(NC(=O)c2cnn3c2N[C@@H](c2ccccc2)CC3(C)C)C(=O)N[C@@H](CC)C(N)=O)cc1 (single isomer, unassigned) [Example 6]" test_value=18.6%
molecule="CCc1ccc(C(CC)(NC(=O)c2cnn3c2N[C@@H](c2ccccc2)CC3(C)C)C(=O)N[C@@H](C)C(N)=O)cc1 (single isomer, unassigned) [Example 4]" test_value=20.8%
molecule="CCc1ccc([C@@](CC)(NC(=O)c2c(C)nn3c2N[C@@H](c2ccccc2)CC3(C)C)C(=O)N[C@@H](C)C(N)=O)cc1 [Example 1]" test_value=15.3%
